Just for reference, ChEMBL document CHEMBL1862790 is where these values come from.

Each entry below carries its recorded IC50.
Assay Procedure: DNDI: Cytotoxicity against L-6 rat myoblasts from skeletal muscle cells
Condition Info: L6 rat skeletal muscle myoblast cells, IC50

Some entries whose results are on file:
Molecule | IC50
CC(C)c1ccc(S(=O)(=O)NC2CCN(C(c3ccc(C(F)(F)F)cc3)c3cnccn3)CC2)cc1 (stereo unspecified) | 18.4 µM
N#Cc1ccc(C(c2cccnc2)N2CCC(NC(=O)c3cc(F)ccc3F)CC2)cc1 (stereo unspecified) | > 100 µM
Cc1oncc1C(=O)N1CCC(NC(c2ccc(C(F)(F)F)cc2)c2cccnc2)CC1 (stereo unspecified) | > 100 µM
N#Cc1ccc(C(c2cccnc2)N2CCN(c3nccs3)CC2)cc1 (stereo unspecified) | > 100 µM
CC(C)c1ccc(NC(=O)N2CCN(C(c3ccc(Cl)cc3)c3cncnc3)CC2)cc1 (stereo unspecified) | 36 µM
CN(C)C(=O)N1CCC(NC(c2cnccn2)c2ccc(F)cc2F)CC1 (stereo unspecified) | > 100 µM
Cc1noc(N2CCN(C(c3cncnc3)c3ccc(C(F)(F)F)cc3F)CC2)n1 (stereo unspecified) | > 100 µM
O=C(NC1CCN(C(c2ccc(Cl)cc2)c2cccnc2)CC1)C1CC1 (stereo unspecified) | 84.1 µM

Look at this molecule and give its reported IC50. OC(c1ccc(Cl)cc1)(c1cccnc1)c1cncs1 (stereo unspecified) > 100 µM

Look at this molecule and give its reported IC50. Cc1cc(C(=O)NC2CCN(C(c3ccc(C(F)(F)F)cc3)c3cccnc3)CC2)[nH]n1 (stereo unspecified) 73.1 µM

Look at this molecule and give its reported IC50. O=C(c1cc(C(O)(c2ccc(Cl)cc2)c2cccnc2)ccc1Cl)N1CCOCC1 (stereo unspecified) > 100 µM

Look at this molecule and give its reported IC50. O=C(NC1CCN(C(c2ccc(C(F)(F)F)cc2)c2cccnc2)CC1)c1ccccc1 (stereo unspecified) 62.6 µM

Look at this molecule and give its reported IC50. CCN(CC)C(=O)N1CCC(NC(c2ccc(C(F)(F)F)cc2)c2cccnc2)CC1 (stereo unspecified) 90.8 µM
